Values were extracted from ChEMBL document CHEMBL2169881.

biological target: Tyrosine-protein phosphatase non-receptor type 6 (Homo sapiens) (UniProt P29350); test: Agonist activity at SHP1 in human PLC5 cells assessed as decrease in pSTAT3-mediated cyclinD1 level at 10 uM after 12 hrs by Western blot analysis; format: functional, cell-based
Sequence (P29350 whole entry): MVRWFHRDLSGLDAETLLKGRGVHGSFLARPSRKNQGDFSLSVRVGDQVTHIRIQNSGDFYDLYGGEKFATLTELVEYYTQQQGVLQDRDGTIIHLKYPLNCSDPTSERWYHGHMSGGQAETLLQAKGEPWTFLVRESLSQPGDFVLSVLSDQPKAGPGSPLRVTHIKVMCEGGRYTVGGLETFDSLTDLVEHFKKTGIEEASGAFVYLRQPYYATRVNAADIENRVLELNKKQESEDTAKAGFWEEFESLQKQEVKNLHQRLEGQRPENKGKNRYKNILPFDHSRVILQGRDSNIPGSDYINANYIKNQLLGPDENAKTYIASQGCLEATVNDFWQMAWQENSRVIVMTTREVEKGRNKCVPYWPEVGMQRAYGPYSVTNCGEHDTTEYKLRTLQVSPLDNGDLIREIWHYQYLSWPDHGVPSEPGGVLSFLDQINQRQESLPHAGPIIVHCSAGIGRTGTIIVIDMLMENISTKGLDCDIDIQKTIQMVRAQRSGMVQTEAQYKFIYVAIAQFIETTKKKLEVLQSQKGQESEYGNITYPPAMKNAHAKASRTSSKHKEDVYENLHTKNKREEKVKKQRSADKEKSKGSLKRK
Activity calls are given as the source filed them. No cut-off for these calls is given here.
Lab note: assign the record to one of active, inactive

Completed entries (count: 3):
COC1=CC(c2cc3ccccc3[nH]2)=N/C1=C\c1ccc[nH]1 = active
COC1=CC(c2ccco2)=N/C1=C\c1ccc[nH]1 = inactive
COC1=CC(c2cc3cc(Br)ccc3[nH]2)=N/C1=C\c1ccc[nH]1 = active

Next compound, please.
Q: Field: outcome | Entry: "COC1=CC(c2cc3ccccc3[nH]2)=N/C1=C\c1ccc(-c2cc3ccccc3[nH]2)[nH]1"
A: active
